- measured target: D(2) dopamine receptor (Homo sapiens)
- Sequence (P14416 whole entry): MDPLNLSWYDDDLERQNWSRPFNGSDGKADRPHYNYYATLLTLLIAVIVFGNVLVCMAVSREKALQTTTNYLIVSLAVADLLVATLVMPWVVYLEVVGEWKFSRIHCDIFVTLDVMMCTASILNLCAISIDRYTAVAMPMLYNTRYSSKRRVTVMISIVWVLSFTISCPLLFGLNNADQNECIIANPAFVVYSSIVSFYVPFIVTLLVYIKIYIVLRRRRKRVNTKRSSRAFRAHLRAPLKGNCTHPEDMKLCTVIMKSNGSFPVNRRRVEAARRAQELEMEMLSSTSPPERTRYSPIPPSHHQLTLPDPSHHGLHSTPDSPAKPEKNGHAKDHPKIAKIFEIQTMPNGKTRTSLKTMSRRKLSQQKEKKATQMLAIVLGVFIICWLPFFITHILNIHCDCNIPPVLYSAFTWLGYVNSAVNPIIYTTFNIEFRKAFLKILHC
- assay summary: Displacement of [3H]spiperone from cloned human dopamine D2S receptor expressed in CHO cells
- Format: cell-based
Checkbox rule: Ki lower than 0.2 µM = Y; Ki not lower than 0.2 µM = N.

Query string: Given `FCCOc1ccccc1N1CCN(Cc2cnn3ccccc23)CC1` , is recorded Ki strictly lower than 0.2 µM?
Result string: Y

Query string: Given `Oc1ccc(N2CCN(Cc3cnn4ccccc34)CC2)cc1` , is recorded Ki strictly lower than 0.2 µM?
Result string: N

Query string: Given `Oc1ccccc1N1CCN(Cc2cnn3ccccc23)CC1` , is recorded Ki strictly lower than 0.2 µM?
Result string: N

Query string: Given `FCCOc1ccc(N2CCN(Cc3cnn4ccccc34)CC2)cc1` , is recorded Ki strictly lower than 0.2 µM?
Result string: N

Query string: Given `Fc1cccc(N2CCN(Cc3cnn4ccccc34)CC2)n1` , is recorded Ki strictly lower than 0.2 µM?
Result string: N

Query string: Given `Brc1cccc(N2CCN(Cc3cnn4ccccc34)CC2)n1` , is recorded Ki strictly lower than 0.2 µM?
Result string: Y

Query string: Given `Brc1cccc(N2CCN(Cc3cc4ccccn4n3)CC2)n1` , is recorded Ki strictly lower than 0.2 µM?
Result string: N

Query string: Given `Fc1cccc(N2CCN(Cc3cc4ccccn4n3)CC2)n1` , is recorded Ki strictly lower than 0.2 µM?
Result string: N

Query string: Given `FCCOc1ccc(N2CCN(Cc3cc4ccccn4n3)CC2)cc1` , is recorded Ki strictly lower than 0.2 µM?
Result string: N

Query string: Given `FCCOc1ccccc1N1CCN(Cc2cc3ccccn3n2)CC1` , is recorded Ki strictly lower than 0.2 µM?
Result string: Y
